System: Escherichia coli
testName: Antibacterial activity against Escherichia coli MTCC 40 after 7 days by two-fold serial dilution method
Assay type: functional
testContext: MTCC 40, 168 h, time 7 day
propertyLabel: MIC (µg/mL)
Expressed in µg/mL, but write only the number.

// worked examples, MIC included
{"columns": ["compound", "MIC (µg/mL)"],
 "data": [
  ["O=C(NN1C(=O)/C(=C/c2cccc(Br)c2)SC1c1cccc(Br)c1)c1ccc(-c2ccccc2)cc1 (centres undefined)", 6.25],
  ["O=C(NN1C(=O)/C(=C/c2ccc(Cl)cc2)SC1c1ccccc1)c1ccc(-c2ccccc2)cc1 (centres undefined)", 3.12],
  ["COc1cccc(/C=C2\\SC(c3ccccc3)N(NC(=O)c3ccc(-c4ccccc4)cc3)C2=O)c1 (centres undefined)", 6.25]
]}

Q: Quickly give me recorded MIC for O=C(NN1C(=O)/C(=C/c2ccc(Cl)cc2)SC1c1cccc(Br)c1)c1ccc(-c2ccccc2)cc1 (centres undefined)
A: 12.5

====

Each entry below lists one item and its recorded MIC value.
Test system: Enterococcus faecalis
testName: Antibacterial activity against Enterococcus faecalis
Format: functional

Q: Fill in MIC for record `Cc1sc(-c2cccc(-c3csc(-c4ccccc4)n3)c2)nc1-c1ccccc1`
A: 250 µg/mL

Q: Determine its reported MIC: `O=[N+]([O-])c1ccc(-c2csc(-c3cccc(-c4csc(-c5ccccc5)n4)c3)n2)cc1`
A: 62 µg/mL

Q: Provide MIC value for the following compound: `COc1ccc(-c2csc(-c3cccc(-c4csc(-c5ccccc5)n4)c3)n2)cc1`
A: 62 µg/mL

Q: Please report the measured MIC for `c1ccc(-c2csc(-c3cccc(-c4csc(-c5ccccc5)n4)c3)n2)cc1`
A: 125 µg/mL

Q: Hello, please tell me recorded MIC for this one: `c1ccc(-c2nc(-c3cccc(-c4nc(-c5cccc6ccccc56)cs4)c3)cs2)cc1`
A: 16 µg/mL

====

Test system: Escherichia coli
testName: Antibacterial activity against Escherichia coli MTCC 40 after 7 days by two-fold serial dilution method
Assay type: functional
testContext: MTCC 40, 168 h, time 7 day
propertyLabel: MIC (µg/mL)
Write it as a number; the unit µg/mL goes unstated.

Answered cases to consult:
{"columns": ["molecule", "assayResult"],
 "data": [
  ["O=C(NN1C(=O)/C(=C/c2cccc([N+](=O)[O-])c2)SC1c1cccc(Br)c1)c1ccc(-c2ccccc2)cc1 (stereo not drawn)", 3.12],
  ["O=C(NN1C(=O)/C(=C/c2ccccc2)SC1c1cccc(F)c1)c1ccc(-c2ccccc2)cc1 (stereo not drawn)", 6.25],
  ["O=C(NN1C(=O)/C(=C/c2cccc([N+](=O)[O-])c2)SC1c1ccccc1)c1ccc(-c2ccccc2)cc1 (stereo not drawn)", 6.25]
]}

Q: Quote Escherichia coli MIC for entry O=C(NN1C(=O)/C(=C/c2cccc([N+](=O)[O-])c2)SC1c1cccc(F)c1)c1ccc(-c2ccccc2)cc1 (stereo not drawn) .
A: 12.5

Q: With Escherichia coli as the test system, provide measured MIC for this molecule: O=C(NN1C(=O)/C(=C/c2cccc(Br)c2)SC1c1ccccc1)c1ccc(-c2ccccc2)cc1 (stereo not drawn)
A: 12.5

Q: State measured MIC of the molecule O=C(NN1C(=O)/C(=C/c2ccccc2)SC1c1ccccc1)c1ccc(-c2ccccc2)cc1 (stereo not drawn) with Escherichia coli.
A: 6.25

Q: Return reported MIC for target or system Escherichia coli, item O=C(NN1C(=O)/C(=C/c2ccccc2)SC1c1cccc(Br)c1)c1ccc(-c2ccccc2)cc1 (stereo not drawn) .
A: 6.25

Q: Please tell me the measured MIC for COc1ccc(/C=C2\SC(c3cccc(Br)c3)N(NC(=O)c3ccc(-c4ccccc4)cc3)C2=O)cc1 (stereo not drawn) ; system: Escherichia coli.
A: 1.56
